Biological target: ScNbp2
Test: SPOT peptide array binding signal intensity (averaged, normalized) (arbitrary units (background-subtracted, floor 0; scale differs between SH3 domains)); higher = stronger binding of the SH3 domain to the peptide
In this section, each of the binders is paired with its reported SPOT peptide array binding signal intensity.

# count of solved cases: 2
VQQDSLPKLPFRSWG ≤ 0
NQARKPFLLPATELS ≤ 0

The record that follows has no SPOT peptide array binding signal intensity shown yet.
The binder SKSRLLIELPEGFFT showed SPOT peptide array binding signal intensity equal to ≤ 0
